The values you see were collected from patent US20240158370A1.

The reader will find reported DC50 values listed item by item below.
- assayed-system: GSPT1 (Homo sapiens, UniProt P15170+Q96SW2)
- Sequence (P15170 whole entry): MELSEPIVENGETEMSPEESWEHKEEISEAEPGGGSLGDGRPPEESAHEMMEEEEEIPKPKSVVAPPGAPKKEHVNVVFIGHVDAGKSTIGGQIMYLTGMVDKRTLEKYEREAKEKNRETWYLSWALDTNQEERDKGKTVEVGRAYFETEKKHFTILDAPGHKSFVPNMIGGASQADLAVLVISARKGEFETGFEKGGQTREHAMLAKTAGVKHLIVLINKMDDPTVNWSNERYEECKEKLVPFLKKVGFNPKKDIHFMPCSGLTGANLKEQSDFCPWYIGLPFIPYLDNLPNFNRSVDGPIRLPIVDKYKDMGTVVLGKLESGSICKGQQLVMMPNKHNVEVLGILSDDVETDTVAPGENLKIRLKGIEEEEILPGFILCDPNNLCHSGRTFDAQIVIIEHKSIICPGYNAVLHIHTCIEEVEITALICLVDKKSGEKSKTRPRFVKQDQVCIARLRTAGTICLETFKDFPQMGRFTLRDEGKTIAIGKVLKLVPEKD
- Sequence (Q96SW2 whole entry): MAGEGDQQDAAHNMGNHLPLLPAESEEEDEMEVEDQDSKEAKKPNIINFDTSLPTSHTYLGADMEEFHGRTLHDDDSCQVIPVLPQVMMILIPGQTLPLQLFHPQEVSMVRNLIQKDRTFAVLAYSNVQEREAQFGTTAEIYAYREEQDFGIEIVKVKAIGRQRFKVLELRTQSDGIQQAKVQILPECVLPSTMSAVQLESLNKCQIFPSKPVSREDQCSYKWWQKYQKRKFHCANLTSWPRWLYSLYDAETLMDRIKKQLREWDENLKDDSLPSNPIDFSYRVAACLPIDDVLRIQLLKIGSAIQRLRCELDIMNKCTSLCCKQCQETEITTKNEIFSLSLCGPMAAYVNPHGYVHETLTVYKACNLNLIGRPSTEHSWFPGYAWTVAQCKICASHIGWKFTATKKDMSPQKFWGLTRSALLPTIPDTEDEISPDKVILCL
- Sequence (Q16531 whole entry partner): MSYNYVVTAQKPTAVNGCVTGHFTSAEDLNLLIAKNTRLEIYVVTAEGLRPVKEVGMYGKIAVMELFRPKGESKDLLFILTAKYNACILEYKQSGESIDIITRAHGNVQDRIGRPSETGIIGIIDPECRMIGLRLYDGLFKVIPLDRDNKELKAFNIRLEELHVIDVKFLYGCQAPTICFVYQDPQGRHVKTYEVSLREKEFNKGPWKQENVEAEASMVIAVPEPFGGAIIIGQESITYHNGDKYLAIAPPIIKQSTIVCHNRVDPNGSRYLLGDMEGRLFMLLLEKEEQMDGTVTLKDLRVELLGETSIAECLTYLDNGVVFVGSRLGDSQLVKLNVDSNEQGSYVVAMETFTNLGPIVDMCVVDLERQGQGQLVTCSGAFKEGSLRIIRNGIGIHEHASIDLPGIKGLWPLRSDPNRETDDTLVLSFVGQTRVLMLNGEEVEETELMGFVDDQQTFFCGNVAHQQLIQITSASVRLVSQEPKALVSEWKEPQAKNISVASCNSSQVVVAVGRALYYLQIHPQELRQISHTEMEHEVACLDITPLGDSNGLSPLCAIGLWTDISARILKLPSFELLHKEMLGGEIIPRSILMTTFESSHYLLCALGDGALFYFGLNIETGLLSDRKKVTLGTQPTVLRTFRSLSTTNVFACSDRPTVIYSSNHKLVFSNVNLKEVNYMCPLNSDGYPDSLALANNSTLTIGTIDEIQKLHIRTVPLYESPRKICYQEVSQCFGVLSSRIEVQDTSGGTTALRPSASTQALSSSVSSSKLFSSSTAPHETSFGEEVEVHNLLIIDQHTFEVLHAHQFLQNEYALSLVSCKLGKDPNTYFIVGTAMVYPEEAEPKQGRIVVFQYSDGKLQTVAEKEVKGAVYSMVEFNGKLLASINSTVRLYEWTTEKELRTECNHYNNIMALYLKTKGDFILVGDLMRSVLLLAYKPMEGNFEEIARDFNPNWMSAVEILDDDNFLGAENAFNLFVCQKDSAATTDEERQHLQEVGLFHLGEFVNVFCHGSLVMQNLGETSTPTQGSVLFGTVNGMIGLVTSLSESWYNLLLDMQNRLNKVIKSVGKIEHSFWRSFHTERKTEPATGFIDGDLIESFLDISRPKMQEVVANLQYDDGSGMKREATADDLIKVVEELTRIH
- assay-summary: HiBiT degradation assay, GSPT1, Procedure A
- Format: cell-based
- Parameters: HiBit-GSPT1 KI HEK293(LgBit) Cells; host or cells: HEK293(LgBit) knock-in cells
- test-conditions: six hours
experimental-endpoint: DC50

CN1CCN(c2cccc(-c3c(-c4ccc5c(c4)CN(C4CCC(=O)NC4=O)C5=O)ncn3C)c2)CC1 (stereo not shown) : ≥ 25 nM
Cn1nc(-c2ccc3c(c2)CN(C2CCC(=O)NC2=O)C3=O)nc1N1CCc2ccccc2C1 (stereo not shown) : ≥ 25 nM
Cn1cc(-c2ccc3c(c2)CN(C2CCC(=O)NC2=O)C3=O)nc1C1CCC(F)(F)CC1 (stereo not shown) : ≥ 25 nM
Cn1ccc(-c2c(-c3ccc4c(c3)CN(C3CCC(=O)NC3=O)C4=O)ncn2C)n1 (stereo not shown) : < 25 nM
Cc1c(-c2c(-c3ccc4c(c3)CN(C3CCC(=O)NC3=O)C4=O)cnn2C)cnn1-c1ccccc1 (stereo not shown) : < 25 nM
Cn1cnc(-c2ccc3c(c2)CN(C2CCC(=O)NC2=O)C3=O)c1-c1ccc2cc[nH]c2c1 (stereo not shown) : < 25 nM
Cn1cnc(-c2ccc3c(c2)CN(C2CCC(=O)NC2=O)C3=O)c1-c1ccc(C(=O)Nc2ccccn2)cc1 (stereo not shown) : ≥ 25 nM
